# TESTED SYSTEM: first (BD1: amino acids K57-E168) bromodomain of BRD4 (Homo sapiens, UniProt O60885)
# Construct: His-tagged first (BD1: amino acids K57-E168)
# ASSAY EXPLANATION: TR-FRET bromodomain binding assay, BRD4 BD1
# STATED CONDITIONS: TR-FRET assay protocol (A-G, compound concentration range); Ki calculated from IC50, probe Kd and probe concentration; read-out: TR-FRET Binding Ki: BRD4 (BDI_K57-E168)
# Method: A time-resolved fluorescence resonance energy transfer (TR-FRET) assay was used to determine the affinities of compounds of the Examples listed in Table 1 for each bromodomain of BRD4. […] TR-FRET data were normalized to the means of 24 no-compound controls (“high”) and 8 controls containing 1 μM un-labeled probe (“low”). […] Inhibition constants (Ki) were calculated from the IC50s, probe Kd and probe concentration. […]
Consider the following compounds and their measured pKi readings.
// field semantics: pKi = negative decimal log of concentration (mol/L)

Please fill in: pKi reported for CCS(=O)(=O)Nc1ccc(Oc2ccc(F)cc2F)c(-c2cn(C)c(=O)cc2OC(C)C)c1 [Example 289] = 8.20

Please fill in: pKi reported for Cc1cccc(OCC2CC2)c1-c1ccc(=O)n(C)c1 [Example 356] = 5.86

Please fill in: pKi reported for CCS(=O)(=O)Nc1ccc(Oc2ccc(F)cc2F)c(-c2cn(C)c(=O)cc2-c2cnn(C)c2)c1 [Example 342] = 8.66

Please fill in: pKi reported for CCCc1cc(=O)n(C)cc1-c1cc(NS(=O)(=O)CC)ccc1Oc1ccc(F)cc1F [Example 359] = 7.90

Please fill in: pKi reported for Cn1nc(-c2ccccc2Oc2ccccc2)c(-c2ccc(CN3CCNCC3)cc2)cc1=O [Example 70] = 7.05

Please fill in: pKi reported for Cn1nc(-c2ccccc2Oc2ccccc2)ccc1=O [Example 1] = 5.73

Please fill in: pKi reported for CC(=O)Nc1ccc(Oc2ccccc2)c(-c2c[nH]c(=O)c(C)c2)c1 [Example 262] = 7.11

Please fill in: pKi reported for COc1ccc(Oc2ccccc2-c2nn(C)c(=O)cc2OC)cc1 [Example 35] = 5.62
